target system: Vitamin D3 receptor (Mus musculus) (UniProt P48281)
Sequence (P48281 whole entry): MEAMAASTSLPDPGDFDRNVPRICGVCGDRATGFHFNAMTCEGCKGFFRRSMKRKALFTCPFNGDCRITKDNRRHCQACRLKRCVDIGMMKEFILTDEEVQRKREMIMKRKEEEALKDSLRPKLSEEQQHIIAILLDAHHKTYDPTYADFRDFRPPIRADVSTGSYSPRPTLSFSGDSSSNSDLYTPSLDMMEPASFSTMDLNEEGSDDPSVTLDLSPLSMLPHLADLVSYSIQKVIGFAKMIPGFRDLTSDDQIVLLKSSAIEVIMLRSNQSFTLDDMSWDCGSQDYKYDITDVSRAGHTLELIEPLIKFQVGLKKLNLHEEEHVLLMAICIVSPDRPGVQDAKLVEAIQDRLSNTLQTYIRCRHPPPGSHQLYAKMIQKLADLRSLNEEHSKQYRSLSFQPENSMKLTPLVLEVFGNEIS
experiment summary: Activation of VDR in mouse C3H10T1/2 cells assessed as up-regulation of CYP24A1 at 5 uM by RT-PCR analysis relative to control
Type: cell-based
experimental conditions: C3H 10T1/2
endpoint name: fold change (FC)
Numbers only.

Answered examples (5):
INSERT INTO measurements (molecule, observed_value) VALUES
  ('C=C1CC[C@H](OC)C/C1=C/C=C1\CCC[C@]2(C)[C@@H]([C@H](C)CCCC(C)C)CC[C@@H]12', 1.1),
  ('C=C1CC[C@@H](O)C/C1=C/C=C1\CCC[C@]2(C)[C@@H]([C@H](C)CCCC(C)C)CC[C@@H]12', 1440),
  ('C=C1CC[C@@H](N)C/C1=C/C=C1\CCC[C@]2(C)[C@@H]([C@H](C)CCCC(C)C)CC[C@@H]12', 6.3),
  ('CC1=C2C[C@H]3[C@@H](CC=C4C[C@@H](O)CC[C@@]43C)[C@@H]2CC[C@]12O[C@@H]1C[C@H](C)CN[C@H]1[C@H]2C [CYCLOPAMINE]', 0.99),
  ('C=C1CCC(=O)C/C1=C/C=C1\CCC[C@]2(C)[C@@H]([C@H](C)CCCC(C)C)CC[C@@H]12', 130);

Could you report fold change (FC) for every entry in the following list?
1. C=C1CC[C@H](N)C/C1=C/C=C1\CCC[C@]2(C)[C@@H]([C@H](C)CCCC(C)C)CC[C@@H]12
2. C=C1CC[C@H](O)C/C1=C/C=C1\CCC[C@]2(C)[C@@H]([C@H](C)CCCC(C)C)CC[C@@H]12 [CHOLECALCIFEROL]

1: 13; 2: 5790

====

experiment summary: Antiproliferative activity against human U87MG cells after 72 hrs by MTS assay
Assay type: functional, cell-based, U-87MG ATCC
experimental conditions: U-87 MG
Consider the following molecules; for each one, report its pIC50.
Numbers only, as −log10 of the molar value.

Worked cases, answers included:
INSERT INTO assay_data (line_notation, observed_value) VALUES
  ('C=C1CC[C@H](O)C/C1=C/C=C1\CCC[C@]2(C)[C@@H]([C@H](C)CCCC(C)C)CC[C@@H]12', 4.53),
  ('C=C1CCC(=O)C/C1=C/C=C1\CCC[C@]2(C)[C@@H]([C@H](C)CCCC(C)C)CC[C@@H]12', 4.30),
  ('C=C1CC[C@@H](O)C/C1=C/C=C1\CCC[C@]2(C)[C@@H]([C@H](C)CCCC(C)C)CC[C@@H]12', 4.41),
  ('C=C1CC[C@H](OC)C/C1=C/C=C1\CCC[C@]2(C)[C@@H]([C@H](C)CCCC(C)C)CC[C@@H]12', 4.27),
  ('C=C1CC[C@@H](N)C/C1=C/C=C1\CCC[C@]2(C)[C@@H]([C@H](C)CCCC(C)C)CC[C@@H]12', 4.91);

List the reported pIC50 of each molecule below.
1. C=C1CC[C@H](N)C/C1=C/C=C1\CCC[C@]2(C)[C@@H]([C@H](C)CCCC(C)C)CC[C@@H]12
2. CC1=C2C[C@H]3[C@@H](CC=C4C[C@@H](O)CC[C@@]43C)[C@@H]2CC[C@]12O[C@@H]1C[C@H](C)CN[C@H]1[C@H]2C

[4.91, 4.65]

====

Assignment: determine reported fold change (FC) for the given compounds.
target system: Vitamin D3 receptor (Homo sapiens)
experiment summary: Activation of VDR in human U87MG cells assessed as up-regulation of CYP24A1 at 10 uM by RT-PCR analysis relative to control
Assay type: cell-based
experimental conditions: U-87MG ATCC
Give bare numbers.

INSERT INTO measurements (compound, target_system, observed_value) VALUES
  ('C=C1CC[C@H](O)C/C1=C/C=C1\CCC[C@]2(C)[C@@H]([C@H](C)CCCC(C)C)CC[C@@H]12 [CHOLECALCIFEROL]', 'Vitamin D3 receptor (Homo sapiens)', 4.9),
  ('C=C1CC[C@H](OC)C/C1=C/C=C1\CCC[C@]2(C)[C@@H]([C@H](C)CCCC(C)C)CC[C@@H]12', 'Vitamin D3 receptor (Homo sapiens)', 1),
  ('C=C1CC[C@@H](O)C/C1=C/C=C1\CCC[C@]2(C)[C@@H]([C@H](C)CCCC(C)C)CC[C@@H]12', 'Vitamin D3 receptor (Homo sapiens)', 6.9),
  ('C=C1CC[C@@H](N)C/C1=C/C=C1\CCC[C@]2(C)[C@@H]([C@H](C)CCCC(C)C)CC[C@@H]12', 'Vitamin D3 receptor (Homo sapiens)', 3.3),
  ('CC1=C2C[C@H]3[C@@H](CC=C4C[C@@H](O)CC[C@@]43C)[C@@H]2CC[C@]12O[C@@H]1C[C@H](C)CN[C@H]1[C@H]2C [CYCLOPAMINE]', 'Vitamin D3 receptor (Homo sapiens)', 1.6);

# map each compound to its fold change (FC)
1. C=C1CCC(=O)C/C1=C/C=C1\CCC[C@]2(C)[C@@H]([C@H](C)CCCC(C)C)CC[C@@H]12
2. C=C1CC[C@H](N)C/C1=C/C=C1\CCC[C@]2(C)[C@@H]([C@H](C)CCCC(C)C)CC[C@@H]12

[1.3, 3.5]

====

Can you tell me fold change (FC) for the items I'm about to list?
target system: Vitamin D3 receptor (Homo sapiens) (UniProt P11473)
Sequence (P11473 whole entry): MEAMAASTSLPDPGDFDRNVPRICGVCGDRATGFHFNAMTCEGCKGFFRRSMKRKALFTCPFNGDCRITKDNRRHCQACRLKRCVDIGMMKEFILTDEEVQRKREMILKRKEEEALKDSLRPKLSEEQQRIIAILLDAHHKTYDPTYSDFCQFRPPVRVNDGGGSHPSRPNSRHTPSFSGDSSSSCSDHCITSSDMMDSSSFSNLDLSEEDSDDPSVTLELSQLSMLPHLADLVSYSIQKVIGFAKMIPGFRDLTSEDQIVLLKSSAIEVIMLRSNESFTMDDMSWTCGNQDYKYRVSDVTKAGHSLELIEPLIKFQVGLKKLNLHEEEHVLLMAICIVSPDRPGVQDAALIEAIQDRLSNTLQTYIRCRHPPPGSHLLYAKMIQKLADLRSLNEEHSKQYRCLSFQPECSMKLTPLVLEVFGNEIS
experiment summary: Activation of VDR in human HT-29 cells assessed as up-regulation of CYP24A1 at 10 uM by RT-PCR analysis relative to control
Type: cell-based
Give bare numbers.

INSERT INTO measurements (line_notation, observed_value) VALUES
  ('C=C1CCC(=O)C/C1=C/C=C1\CCC[C@]2(C)[C@@H]([C@H](C)CCCC(C)C)CC[C@@H]12', 0.9),
  ('C=C1CC[C@H](OC)C/C1=C/C=C1\CCC[C@]2(C)[C@@H]([C@H](C)CCCC(C)C)CC[C@@H]12', 4.2),
  ('C=C1CC[C@H](O)C/C1=C/C=C1\CCC[C@]2(C)[C@@H]([C@H](C)CCCC(C)C)CC[C@@H]12', 1060);

Give fold change (FC) for each of the items listed below.
1. CC1=C2C[C@H]3[C@@H](CC=C4C[C@@H](O)CC[C@@]43C)[C@@H]2CC[C@]12O[C@@H]1C[C@H](C)CN[C@H]1[C@H]2C
2. C=C1CC[C@@H](N)C/C1=C/C=C1\CCC[C@]2(C)[C@@H]([C@H](C)CCCC(C)C)CC[C@@H]12

[0.9, 6.1]

Required: fold change (FC), one value per compound below.
1. C=C1CC[C@H](N)C/C1=C/C=C1\CCC[C@]2(C)[C@@H]([C@H](C)CCCC(C)C)CC[C@@H]12
2. C=C1CC[C@@H](O)C/C1=C/C=C1\CCC[C@]2(C)[C@@H]([C@H](C)CCCC(C)C)CC[C@@H]12

[6.4, 1650]
